Below, each entry is listed alongside its reported Residual rate (%) 60 min.
- Experiment Description: Plasma stability, rat plasma
- Format: in vitro ADME
- Measurement Parameters: rat plasma, 37° C., 60 min
Measured Endpoint: Residual rate (%) 60 min

Compound	Reported Value
C=CC(=O)N1CCN(c2nc(=O)n(-c3c(C)ccnc3C(C)C)c3nc(-c4c(O)cccc4F)c(F)cc23)[C@@H](C)C1 [AMG 510, reference compound]	77.54%
C=CC(=O)N1C[C@H](C)N(c2nc(=O)n(-c3c(SC)ccnc3C(C)C)c3nc(-c4c(N)ccc(Cl)c4F)c(Cl)cc23)C[C@H]1C (atropisomer, axis not shown) [Embodiment 13-1]	93.97%
CC[C@H](C)C(=O)O[C@H]1C[C@@H](C)C=C2C=C[C@H](C)[C@H](CC[C@@H]3C[C@@H](O)CC(=O)O3)[C@H]21 [Lovastatin, reference compound]	0.36%
C=CC(=O)N1C[C@H](C)N(c2nc(=O)n(-c3c(SC)ccnc3C(C)C)c3nc(-c4c(O)cccc4F)c(Cl)cc23)C[C@H]1C (atropisomer, axis not shown) [Embodiment 14-1]	99.08%

----------
- Experiment Description: Plasma stability, human plasma
- Type: in vitro ADME
- Measurement Parameters: human, plasma
Measured Endpoint: half-life at 0.5 μM

Compound	Measured Endpoint	Reported Value
CC(C)[N+](C)(CCOC(=O)C1c2ccccc2Oc2ccccc21)C(C)C [Propantheline, reference compound]	half-life at 0.5 μM	0.351 h
C=CC(=O)N1CCN(c2nc(=O)n(-c3c(C)ccnc3C(C)C)c3nc(-c4c(O)cccc4F)c(F)cc23)[C@@H](C)C1 [AMG 510, reference compound]	half-life at 0.5 μM	3.31 h

----------
- Tgt: human KRAS G12C protein (Homo sapiens, UniProt P01116, G12C)
- Construct: purchased Beijing SinoBiological Co., Ltd. 12259-H07E2
- Experiment Description: Thermal shift: melting temperature of KRAS G12C protein
- Type: binding
- Measurement Parameters: KRAS G12C protein 5.37 μM with compound 10 μM, 1 hour
Below, each entry is listed alongside its reported Tm.

Compound	Tm, °C
C=CC(=O)N1CCN(c2nc(=O)n(-c3c(SC)ccnc3C(C)C)c3nc(-c4c(N)cccc4F)c(F)cc23)[C@@H](C)C1 [Embodiment 5]	64.4
C=CC(=O)N1CCN(c2nc(=O)n(-c3c(SC)ccnc3C(C)C)c3nc(-c4c(O)cccc4F)c(Cl)cc23)[C@@H](C)C1 [Embodiment 3]	61.5
C=CC(=O)N1CCN(c2nc(=O)n(-c3c(SC)ccnc3C(C)C)c3nc(-c4c(F)cccc4SC)c(F)cc23)[C@@H](C)C1 [Embodiment 4]	61.2
C=CC(=O)N1CCN(c2nc(=O)n(-c3c(SC)ccnc3C(C)C)c3nc(-c4c(N)ccc(Cl)c4F)c(Cl)cc23)[C@@H](C)C1 [Embodiment 9]	60.2
C=CC(=O)N1C[C@H](C)N(c2nc(=O)n(-c3c(SC)ccnc3C(C)C)c3nc(-c4c(N)ccc(Cl)c4F)c(Cl)cc23)C[C@H]1C [Embodiment 13]	58.0
C=CC(=O)N1CCN(c2nc(=O)n(-c3c(SC)ccnc3C(C)C)c3nc(-c4c(O)cccc4F)c(F)cc23)[C@@H](C)C1 [Embodiment 1]	60.2
C=CC(=O)N1C[C@H](C)N(c2nc(=O)n(-c3c(SC)ccnc3C(C)C)c3nc(-c4c(O)cccc4F)c(F)cc23)C[C@H]1C [Embodiment 2]	57.2
